The compounds below have reported Ki for UniProt P07339.
Sequence (P07339 65-412, species assumed): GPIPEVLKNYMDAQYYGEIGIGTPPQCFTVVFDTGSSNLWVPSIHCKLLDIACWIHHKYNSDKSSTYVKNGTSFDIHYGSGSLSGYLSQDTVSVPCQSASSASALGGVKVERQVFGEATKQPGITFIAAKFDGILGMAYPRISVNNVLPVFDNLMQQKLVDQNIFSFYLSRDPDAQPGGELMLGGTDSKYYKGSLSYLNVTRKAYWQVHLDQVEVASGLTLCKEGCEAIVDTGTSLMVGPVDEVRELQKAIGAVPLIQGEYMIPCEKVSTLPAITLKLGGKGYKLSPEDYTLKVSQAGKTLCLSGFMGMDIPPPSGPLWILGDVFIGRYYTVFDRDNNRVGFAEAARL

Data request: // map Cc1csc(CN(C)CC(O)C(Cc2ccccc2)NC(=O)c2cc(C(=O)NC(C)c3ccccc3)cc(N(C)S(C)(=O)=O)c2)n1 (stereo not drawn) to recorded Ki (system: UniProt P07339)
Data returned: > 501 nM

Data request: Provide the documented Ki with UniProt P07339 as the system for COc1cccc(C(C)NCC(O)C(Cc2ccccc2)NC(=O)c2cc(C(=O)NC(C)c3ccccc3)cc(N(C)S(C)(=O)=O)c2)c1 (stereo not drawn)
Data returned: < 300 nM

Data request: Hello, I am looking for reported Ki with UniProt P07339 for COc1cccc(CNCC(O)C(Cc2ccccc2)NC(=O)c2cccc(C(=O)N(C)Cc3nc(C)cs3)c2F)c1 (stereo not drawn) . Could you help?
Data returned: < 300 nM

Data request: Requested read-out Ki, target or system UniProt P07339, entry CC(=O)Nc1cccc(CNCC(O)C(Cc2ccccc2)NC(=O)c2cc(C(=O)NC(C)c3ccccc3)cc(N(C)S(C)(=O)=O)c2)c1 (stereo not drawn)
Data returned: 301 to 500 nM

Data request: What Ki appears in the records for this compound with UniProt P07339? COc1cccc(F)c1CNCC(O)C(Cc1ccccc1)NC(=O)c1cc(C(=O)NC(C)c2ccccc2)cc(N(C)S(C)(=O)=O)c1 (stereo not drawn)
Data returned: < 300 nM

Data request: So what Ki did COc1cccc(CNCC(O)C(Cc2ccccc2)NC(=O)c2cc(C(=O)NC(C)C3CCCCC3)cc(N(C)S(C)(=O)=O)c2)c1 (stereo not drawn) get with UniProt P07339?
Data returned: < 300 nM

Data request: Form field: Ki recorded for Cc1csc(CN(C)C(=O)c2cccc(C(=O)NC(Cc3ccccc3)C(O)CNCc3cccc(OC(C)C)c3)c2)n1 (stereo not drawn) with UniProt P07339 (enter value)
Data returned: < 300 nM

Data request: Test system UniProt P07339; read-out Ki; what value for CC(NC(=O)c1cc(C(=O)NC(Cc2ccccc2)C(O)CNCCN2CCCC2)cc(N(C)S(C)(=O)=O)c1)c1ccccc1 (stereo not drawn) ?
Data returned: > 501 nM

Data request: Find the measured Ki: item CCC(NCC(O)C(Cc1ccccc1)NC(=O)c1cc(C(=O)NC(C)c2ccccc2)cc(N(C)S(C)(=O)=O)c1)c1ccccc1 (stereo not drawn) , target or system UniProt P07339.
Data returned: < 300 nM

###

target: UniProtKB P56817; assay: Inhibition of memapsin 2 catalytic activity (Ki); assay type: biochemical; details: memapsin 2, pH 4, 37° C.; read-out: M2K
READOUT_NAME: Ki

These recorded examples may help you get a feel for the data.
Cc1csc(CN(C)C(=O)c2cccc(C(=O)NC(Cc3ccccc3)C(O)CNCc3cc(C)on3)c2)n1 (stereo not drawn)    301 to 500 nM
CCC(NC(=O)c1cc(C(=O)NC(Cc2ccccc2)C(O)CNCc2cccc(OC)c2)cc(N(C)S(C)(=O)=O)c1)c1ccccc1 (stereo not drawn)    < 300 nM

Consider now this further compound.
Data request: Query (compound): COc1cccc(CNCC(O)C(Cc2ccccc2)NC(=O)c2cc(C(=O)N(C)Cc3nc(C)cs3)cc(N(C)S(C)(=O)=O)c2)c1 (stereo not drawn) ; field requested: Ki
Data returned: < 300 nM

###

molecular target: memapsin 2 (Homo sapiens, UniProt P56817); test: Inhibition of memapsin 2 catalytic activity (Ki); type: biochemical; conditions: memapsin 2, pH 4, 37° C.; read-out: M2K
Sequence (P56817 46-501): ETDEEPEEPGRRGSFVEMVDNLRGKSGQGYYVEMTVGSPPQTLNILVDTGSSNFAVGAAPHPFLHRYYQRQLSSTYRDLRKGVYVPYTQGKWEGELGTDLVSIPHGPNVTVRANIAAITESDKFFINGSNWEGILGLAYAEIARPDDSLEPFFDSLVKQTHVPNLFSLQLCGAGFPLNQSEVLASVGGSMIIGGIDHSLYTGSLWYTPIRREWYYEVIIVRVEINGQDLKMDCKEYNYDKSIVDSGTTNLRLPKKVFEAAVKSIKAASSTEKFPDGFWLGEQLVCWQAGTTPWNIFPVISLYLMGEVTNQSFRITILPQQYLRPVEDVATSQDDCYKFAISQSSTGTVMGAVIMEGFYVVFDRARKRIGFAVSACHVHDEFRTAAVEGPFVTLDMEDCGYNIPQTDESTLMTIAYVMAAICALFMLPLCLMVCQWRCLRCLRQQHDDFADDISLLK
# Lookup of reported Ki keyed by entry

COc1cccc(CNCC(O)C(Cc2ccccc2)NC(=O)c2cc(C(=O)NCC3COC4OCCC34)cc(N(C)S(C)(=O)=O)c2)c1 (stereo not shown)    0.301 to 0.5 µM

Data request: What measured Ki goes with Cc1cc(CNCC(O)C(Cc2ccccc2)NC(=O)c2cccc(C(=O)N(C)Cc3nc(C)cs3)c2)on1 (stereo not shown) ?
Data returned: < 0.3 µM

Data request: Suppose we examine the molecule COc1cccc(CNCC(O)C(Cc2ccccc2)NC(=O)c2cc(C(=O)NC(C)c3nc(C)co3)cc(N(C)S(C)(=O)=O)c2)c1 (stereo not shown) ; what Ki value has been reported?
Data returned: < 0.3 µM

Data request: Which value of Ki has been reported for COc1ccc(CNCC(O)C(Cc2ccccc2)NC(=O)c2cccc(C(=O)N(C)Cc3nc(C)cs3)c2)cc1 (stereo not shown) in the records?
Data returned: > 0.501 µM
